Overview of recorded Kd for various binders
# TESTED_ON: MS2 coat protein, dlFG mutant (Escherichia phage MS2, UniProt P03612, del68-81insG)
# ASSAY_EXPLANATION: 4 mM Mg2+; miR-208a RNA 100 nM (AU…UUGU); RNA-MaP array; 100 mM Tris-HCl pH 7.5, 80 mM KCl, 4 mM MgCl2, 0.1 mg/mL BSA, 1 mM DTT, 0.01 mg/mL yeast tRNA, 0.01% Tween-20; protein 1.5 nM to 3 uM; 37 C (Table S3)
# REPORTED_CONDITIONS: chain copies: 2; label: tethered by stalled RNA polymerase
PROPERTY: Kd

| BINDER | RESULT |
| --- | --- |
| Eterna 10216 (Sensor for hsa-mir-208a) (ssRNA) RNA: CUCAAAACAAGUUGCAGUGUUCGUCUUUAACAUGAGGAUCACCCAUGUAAUAACCCAGUGGAAGCGCUCGGGCCACC | 21.1 nM |
| Eterna 11880 (Sensor v3, turn-off variant 2) (ssRNA) RNA: AGAAAUGCCCAUGGCCGCAAGCUUUUCGCUUGUCUUACCACAUGAGGAUCACCCAUGUGACAUGGGCUCCUUAUAAU | 10.7 nM |
| Eterna 13246 (Sensor for hsa-mir-208a) (ssRNA) RNA: UGGAUCUAGGCUUGCCUGGGUCCAUGUUGACAUGAGGAUCACCCAUGUGUAUUUUAUAAGCUUUUUGUUUGUCAACA | 13.4 nM |
